assay_target: SFRP-1 (Homo sapiens)
Sequence (Q8N474 32-314): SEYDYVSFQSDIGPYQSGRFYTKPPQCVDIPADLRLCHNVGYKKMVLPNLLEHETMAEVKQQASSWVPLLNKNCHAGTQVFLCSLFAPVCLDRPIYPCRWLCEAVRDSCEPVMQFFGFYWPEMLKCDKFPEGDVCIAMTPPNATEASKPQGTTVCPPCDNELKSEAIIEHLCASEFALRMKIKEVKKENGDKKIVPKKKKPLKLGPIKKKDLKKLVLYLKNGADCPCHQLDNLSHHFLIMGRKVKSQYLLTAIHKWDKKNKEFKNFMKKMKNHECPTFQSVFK
assay_protocol: Cell-based assay for in vitro measurement of SFRP-1/SARP2 antagonist activity (U2OS cells co-transfected with 16x TCF-tk-Luciferase reporter, Wnt and hSFRP-1)
assay_context: U2OS, read-out: Fold Induction without SFRP-1, Conc 15 μM; single dose; luciferase reporter; cells without SFRP-1 (specificity control)
Below: a set of entries, each annotated with reported fold induction at 15 µM.
measurement_kind: fold induction at 15 µM

* CC(C)c1ccc(S(=O)(=O)c2ccc(N(C)C)cc2)cc1S(=O)(=O)NCC1CCOCC1 | 1.1
* CC(=O)N1CCC(NS(=O)(=O)c2cc(S(=O)(=O)c3ccc(F)cc3)ccc2C(C)C)CC1 | 1
* CCCc1ccc(S(=O)(=O)c2ccc(F)cc2)cc1S(=O)(=O)NC1CCN(C(=O)OC(C)(C)C)CC1 | 1.3
* Cc1ccc(S(=O)(=O)c2cc(Cl)cc(C#N)c2)cc1S(=O)(=O)NCCc1ccccn1 | 1.2

---

assay_target: SFRP-1 (Homo sapiens)
assay_protocol: Cell-based assay for in vitro measurement of SFRP-1/SARP2 antagonist activity (U2OS cells co-transfected with 16x TCF-tk-Luciferase reporter, Wnt and hSFRP-1)
pEC50: −log10 of the molar value.
measurement_kind: pEC50

* CN(CCNS(=O)(=O)c1cc(S(=O)(=O)c2ccccc2)ccc1C(F)(F)F)C(=O)N[C@H]1CCCN(C(=O)OC(C)(C)C)C1 | 5.70
* CC(C)c1ccc(S(=O)(=O)c2ccc(F)cc2)cc1S(=O)(=O)NCCC#N | 5.52
* CC(=O)N1CC[C@H](C(=O)N2CCC(NS(=O)(=O)c3cc(S(=O)(=O)c4ccccc4)ccc3C(F)(F)F)CC2)C1 | 6.78
* COC(=O)c1ccc(CNS(=O)(=O)c2cc(S(=O)(=O)c3ccccc3)ccc2C(F)(F)F)cc1 | 5.74

---

Below: a set of entries, each annotated with reported fold induction at 15 µM.
assay_target: SFRP-1 (Homo sapiens, UniProt Q8N474)
assay_protocol: Cell-based assay for in vitro measurement of SFRP-1/SARP2 antagonist activity (U2OS cells co-transfected with 16x TCF-tk-Luciferase reporter, Wnt and hSFRP-1);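 also: U2OS cells co-transfected with a TCF-tk luciferase reporter, a Wnt vector, hSFRP-1 or empty vector and CMV-βgal, luciferase luminescence read in cell lysates alongside βgal activity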
assay_context: U2OS, read-out: Fold Induction without SFRP-1, Conc 15 μM; single dose; luciferase reporter; cells without SFRP-1 (specificity control)
measurement_kind: fold induction at 15 µM

* CC(C)c1ccc(S(=O)(=O)c2ccc3c(c2)C(C)(C)OC(=O)N3)cc1S(=O)(=O)NCCc1ccccn1 | 1
* Cc1ccc(S(=O)(=O)c2ccccc2)cc1S(=O)(=O)NC1CCN(C(=O)Oc2ccc(F)cc2)CC1 | 0.8
* CC(C)c1ccc(S(=O)(=O)c2ccc(N3C[C@@H](C)N[C@@H](C)C3)cc2)cc1S(=O)(=O)NC1CCOCC1 | 1.1
* Cc1ccc(S(=O)(=O)c2ccccc2)cc1S(=O)(=O)NC1CCN(C(=O)CC(C)(C)C)CC1 | 1
* CC(C)c1ccc(S(=O)(=O)c2ccc(F)cc2)cc1S(=O)(=O)NCCO | 1
* CCCc1ccc(S(=O)(=O)c2ccc(F)cc2)cc1S(=O)(=O)NCCc1ccccn1 | 1.3
* CC(C)c1ccc(S(=O)(=O)c2ccc(F)cc2)cc1S(=O)(=O)NC1CCC1 | 0.9
* CNc1ccc(S(=O)(=O)c2ccc(C(C)C)c(S(=O)(=O)NC3CCNCC3)c2)cc1 | 1.1
